# tested-on: human DGKζ (Homo sapiens (Human), UniProt Q13574)
# Sequence (Q13574 other isoform, or with tags, fused parts or gaps): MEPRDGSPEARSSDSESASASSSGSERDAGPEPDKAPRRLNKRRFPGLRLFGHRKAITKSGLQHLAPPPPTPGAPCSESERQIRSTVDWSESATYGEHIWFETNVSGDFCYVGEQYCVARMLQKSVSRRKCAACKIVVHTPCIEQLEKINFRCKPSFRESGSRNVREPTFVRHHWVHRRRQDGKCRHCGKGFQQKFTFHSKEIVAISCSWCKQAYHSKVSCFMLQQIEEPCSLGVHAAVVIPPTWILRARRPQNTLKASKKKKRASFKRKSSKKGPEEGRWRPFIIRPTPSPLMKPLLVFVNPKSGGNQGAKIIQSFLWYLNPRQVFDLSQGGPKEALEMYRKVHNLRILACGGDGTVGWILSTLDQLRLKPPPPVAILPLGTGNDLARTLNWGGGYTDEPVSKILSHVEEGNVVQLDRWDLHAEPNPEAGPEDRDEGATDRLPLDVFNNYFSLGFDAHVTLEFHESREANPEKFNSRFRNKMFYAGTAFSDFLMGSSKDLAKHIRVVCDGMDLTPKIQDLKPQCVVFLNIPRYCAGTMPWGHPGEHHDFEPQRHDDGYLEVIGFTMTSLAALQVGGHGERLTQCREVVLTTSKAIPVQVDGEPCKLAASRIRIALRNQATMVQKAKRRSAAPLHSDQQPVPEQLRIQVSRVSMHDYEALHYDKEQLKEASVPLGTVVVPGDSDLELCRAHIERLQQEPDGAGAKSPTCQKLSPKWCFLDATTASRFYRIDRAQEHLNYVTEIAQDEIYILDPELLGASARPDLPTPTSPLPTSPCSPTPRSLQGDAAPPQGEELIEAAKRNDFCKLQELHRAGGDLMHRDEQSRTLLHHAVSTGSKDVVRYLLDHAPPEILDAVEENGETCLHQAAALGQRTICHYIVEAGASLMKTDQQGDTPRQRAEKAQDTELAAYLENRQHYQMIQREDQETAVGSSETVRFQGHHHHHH
# test-details: DGKζ LIPGLO assay (extruded liposome substrate, ADP-Glo luminescence)
# Type: biochemical
# conditions-used: liposome assay; read-out: DGK zeta LIPGLO IC50
pIC50: −log10 of the molar value.
property: pIC50

In the examples that follow, each entry is paired with its recorded pIC50.
[
  {
    "compound": "CCC(c1ccc(OC(C)C)cc1)N1C[C@H](CC)N(c2nc(=O)n(C)c3ccc(C#N)nc23)C[C@H]1CC (some centres unmarked) [Example 235]",
    "value-observed": 6.11
  },
  {
    "compound": "CC(c1ccc(OC(F)(F)F)cc1)N1C[C@H](C)N(c2nc(=O)n(C)c3ccc(C#N)nc23)C[C@H]1CO (single isomer, unassigned) [Example 183]",
    "value-observed": 5.57
  },
  {
    "compound": "CCC(c1ccc(C)cc1)N1C[C@H](CC)N(c2nc(=O)n(C)c3ccc(C#N)nc23)C[C@H]1CC (some centres unmarked) [Example 236]",
    "value-observed": 7.24
  },
  {
    "compound": "CC[C@@H]1CN(c2nc(=O)n(C)c3ccc(C#N)nc23)[C@@H](C)CN1C(C)c1ccc(OC)cc1 (single isomer, unassigned) [Example 57]",
    "value-observed": 6.03
  },
  {
    "compound": "CC[C@H]1CN(C(c2ccc(OC)cc2)C(C)C)[C@H](CC)CN1c1nc(=O)n(C)c2ccc(C#N)nc12 (some centres unmarked) [Example 250]",
    "value-observed": 5.94
  }
]

(a) CCC(c1ccc(OC(F)(F)F)cc1)N1C[C@H](C)N(c2nc(=O)n(C)c3ccc(C#N)nc23)C[C@H]1CC (single isomer, unassigned) [Example 84]
(b) CC[C@@H]1CN(c2nc(=O)n(C)c3ccc(C#N)nc23)[C@@H](C)CN1C(c1ccc(F)cc1)c1nc(C2CC2)no1 (some centres unmarked) [Example 113]
(c) CCC(c1ccc(OC(F)F)cc1)N1C[C@H](C)N(c2nc(=O)n(C)c3ccc(C#N)nc23)C[C@H]1CC (single isomer, unassigned) [Example 78]
(d) CC[C@@H]1CN(c2nc(=O)n(C)c3ccc(C#N)nc23)[C@@H](C)CN1C(C)c1ccc(C2CC2)cc1 (single isomer, unassigned) [Example 63]
Please order the records by their reported pIC50, lowest number first. As an answer, provide the labels arranged in the order called for.
a, c, b, d

(a) CC[C@H]1CN(C(C)c2ccc(OC(C)C)cc2)[C@H](CC)CN1c1nc(=O)n(C)c2ccc(C#N)nc12 (single isomer, unassigned) [Example 19]
(b) CC[C@H]1CN(C(C)c2ccc(C3CC3)cc2F)[C@H](CC)CN1c1nc(=O)n(C)c2ccc(C#N)nc12 (single isomer, unassigned) [Example 40]
(c) CC[C@H]1CN(C(C)c2ccc(C(F)(F)F)cc2F)[C@H](C)CN1c1nc(=O)n(C)c2ccc(C#N)nc12 (some centres unmarked) [Example 118]
Order the records by pIC50, with each subsequent value no larger than the one before. Write the labels in rank order as requested.
c, b, a
(c: 7.80, b: 7.39, a: 5.51)

(I) CC[C@H]1CN(C(C)c2ccc(OC)cc2)[C@H](CC)CN1c1nc(=O)n(C)c2ccc(C#N)nc12 (single isomer, unassigned) [Example 16]
(II) CCC(c1ccc(OCC2CC2)cc1)N1C[C@H](CC)N(c2nc(=O)n(C)c3ccc(C#N)nc23)C[C@H]1CC (some centres unmarked) [Example 216]
Compare pIC50: is it lower for I or for II ? # respond with the chosen item's label
II

---

# tested-on: human DGKα (Homo sapiens (Human))
# test-details: DGKα LIPGLO assay (extruded liposome substrate, ADP-Glo luminescence)
# Format: biochemical
# conditions-used: liposome assay; read-out: DGK alpha LIPGLO IC50
property: IC50 (nM)

[
  {
    "compound": "CCC(c1ccc(OC(F)(F)F)cc1F)N1C[C@H](C)N(c2nc(=O)n(C)c3ccc(C#N)nc23)C[C@H]1C (single isomer, unassigned) [Example 153]",
    "IC50, nM": 690
  },
  {
    "compound": "C[C@@H]1CN(c2nc(=O)n(C)c3ccc(C#N)nc23)[C@@H](C)CN1C(c1ccc(F)cc1)c1nc(C(C)(C)C)no1 (single isomer, unassigned) [Example 109]",
    "IC50, nM": 34
  },
  {
    "compound": "CC(c1ccc(C(F)(F)F)cc1F)N1C[C@H](C)N(c2nc(=O)n(C)c3ccc(C#N)nc23)C[C@H]1C (single isomer, unassigned) [Example 151]",
    "IC50, nM": 3460
  },
  {
    "compound": "C[C@@H]1CN(c2nc(=O)n(C)c3ccc(C#N)nc23)[C@@H](C)CN1C(c1ccc(OC(F)(F)F)cc1)c1cc(C2CC2)on1 (single isomer, unassigned) [Example 165]",
    "IC50, nM": 380
  },
  {
    "compound": "CC(c1ccc(C(F)(F)F)cc1)N1C[C@H](C)N(c2nc(=O)n(C)c3ccc(C#N)nc23)C[C@H]1C (single isomer, unassigned) [Example 140]",
    "IC50, nM": 180
  }
]

(1) Cc1ccc(C(c2ccc(C)cc2)N2C[C@H](C)N(c3nc(=O)n(C)c4ccc(C#N)nc34)C[C@H]2C)cc1
(2) C[C@@H]1CN(c2nc(=O)n(C)c3ccc(C#N)nc23)[C@@H](C)CN1C(c1ccc(OC(F)(F)F)cc1)c1cc(C2CC2)on1 (single isomer, unassigned) [Example 164]
Which record shows the lower IC50: the first, 1 , or the second, 2 ? State your choice using its label.
2

---

# tested-on: human DGKα (Homo sapiens (Human), UniProt P23743)
# Sequence (P23743 whole entry, looked up): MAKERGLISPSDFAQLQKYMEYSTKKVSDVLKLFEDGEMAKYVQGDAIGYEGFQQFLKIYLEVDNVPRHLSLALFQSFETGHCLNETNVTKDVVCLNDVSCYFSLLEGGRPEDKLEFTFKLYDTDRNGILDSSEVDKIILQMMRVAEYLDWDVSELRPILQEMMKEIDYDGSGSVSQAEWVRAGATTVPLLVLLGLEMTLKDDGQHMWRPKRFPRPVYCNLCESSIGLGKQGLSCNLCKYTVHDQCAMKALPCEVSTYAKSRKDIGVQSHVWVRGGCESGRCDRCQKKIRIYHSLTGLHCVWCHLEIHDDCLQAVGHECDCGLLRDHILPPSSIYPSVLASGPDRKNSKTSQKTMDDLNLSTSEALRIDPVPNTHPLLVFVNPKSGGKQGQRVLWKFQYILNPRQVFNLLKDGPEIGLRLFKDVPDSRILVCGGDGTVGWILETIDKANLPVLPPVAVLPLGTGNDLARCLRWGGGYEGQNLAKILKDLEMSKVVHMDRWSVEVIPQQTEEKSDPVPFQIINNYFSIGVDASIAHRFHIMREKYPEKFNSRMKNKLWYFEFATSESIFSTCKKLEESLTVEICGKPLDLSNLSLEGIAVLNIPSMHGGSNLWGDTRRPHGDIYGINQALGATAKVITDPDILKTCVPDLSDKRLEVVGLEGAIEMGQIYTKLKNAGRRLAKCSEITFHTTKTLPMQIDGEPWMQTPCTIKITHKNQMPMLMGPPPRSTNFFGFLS
# test-details: DGKα ADPGLO assay (detergent/lipid micelle substrate)
# Type: biochemical
# conditions-used: truncated DGK alpha; read-out: DGK alpha ADPGLO (Truncated) IC50
pIC50: −log10 of the molar value.
property: pIC50

[
  {
    "molecule": "CC[C@H]1CN(C(C)c2cccc(OC)n2)[C@H](CC)CN1c1nc(=O)n(C)c2ccc(C#N)nc12 (some centres unmarked) [Example 215]",
    "tested-on": "human DGKα (Homo sapiens (Human), UniProt P23743)",
    "value-observed": 7.11
  },
  {
    "molecule": "CC[C@H]1CN(C(C)c2ccc(CN3CC4(COC4)C3)cc2)[C@H](CC)CN1c1nc(=O)n(C)c2ccc(C#N)nc12 (some centres unmarked) [Example 279]",
    "tested-on": "human DGKα (Homo sapiens (Human), UniProt P23743)",
    "value-observed": 4.77
  },
  {
    "molecule": "CC[C@H]1CN(C(C)c2cccc(OC(F)F)n2)[C@H](CC)CN1c1nc(=O)n(C)c2ccc(C#N)nc12 (some centres unmarked) [Example 241]",
    "tested-on": "human DGKα (Homo sapiens (Human), UniProt P23743)",
    "value-observed": 6.34
  },
  {
    "molecule": "CC[C@@H]1CN(c2nc(=O)n(C)c3ccc(C#N)nc23)[C@@H](C)CN1C(c1ccc(F)cc1)c1ccc(C(F)(F)F)nc1 (single isomer, unassigned) [Example 98]",
    "tested-on": "human DGKα (Homo sapiens (Human), UniProt P23743)",
    "value-observed": 7.59
  },
  {
    "molecule": "CCC(c1ccc(C(F)(F)F)cc1)N1C[C@H](CC)N(c2nc(=O)n(C)c3ccc(C#N)nc23)C[C@H]1CC (single isomer, unassigned) [Example 5]",
    "tested-on": "human DGKα (Homo sapiens (Human), UniProt P23743)",
    "value-observed": 7.19
  },
  {
    "molecule": "CCC(c1ccc(OC(C)C)cc1)N1C[C@H](CC)N(c2nc(=O)n(C)c3ccc(C#N)nc23)C[C@H]1CC (some centres unmarked) [Example 235]",
    "tested-on": "human DGKα (Homo sapiens (Human), UniProt P23743)",
    "value-observed": 6.37
  }
]

(A) CC[C@H]1CN(C(C)c2ccc(CN3CCC(OC)CC3)cc2)[C@H](CC)CN1c1nc(=O)n(C)c2ccc(C#N)nc12 (single isomer, unassigned) [Example 274]
(B) CC[C@@H]1CN(c2nc(=O)n(C)c3ccc(C#N)nc23)[C@@H](C)CN1C(c1ccc(OC(F)(F)F)cc1)c1cc(C2CC2)on1 (single isomer, unassigned) [Example 100]
(C) CCC(c1ccc(OC(F)F)cc1F)N1C[C@H](CC)N(c2nc(=O)n(C)c3ccc(C#N)nc23)C[C@H]1CC (some centres unmarked) [Example 232]
(D) CCC(c1ccc(CN2CCOCC2)cc1)N1C[C@H](CC)N(c2nc(=O)n(C)c3ccc(C#N)nc23)C[C@H]1CC (some centres unmarked) [Example 268]
(E) CC[C@H]1CN(C(C)c2ccc(N3CCCC3=O)cc2)[C@H](CC)CN1c1nc(=O)n(C)c2ccc(C#N)nc12 (some centres unmarked)
Please order the records by their reported pIC50, lowest number first. To answer, arrange all of the labels according to the requested order.
A, D, E, B, C
(A: 4.80, D: 6.47, E: 7.38, B: 7.96, C: 8.70)

src = patent US11584747B2
